These entries and their values trace back to patent US10653717B2.

Test system: ECO-3: E. coli ZY-1
Assay: Drug sensitivity of clinical isolated strain; further: key: R: resistant; S: sensitive
Assay type: cell-based, Escherichia coli
Settings: E. coli ZY-1 (Table 7)

{"molecule": "C[C@H]1[C@H](NC(=O)/C(=N\\OC(C)(C)C(=O)O)c2csc(N)n2)C(=O)N1S(=O)(=O)O [Aztreonam]", "Drug sensitivity": "S"}
{"molecule": "C[C@@H](O)[C@H]1C(=O)N2C(C(=O)O)=C(S[C@@H]3CN[C@H](C(=O)N(C)C)C3)[C@H](C)[C@H]12 [Meropenem]", "Drug sensitivity": "S"}
{"molecule": "O=C(N[C@H](CO)[C@H](O)c1ccc([N+](=O)[O-])cc1)C(Cl)Cl [Chloramphenicol]", "Drug sensitivity": "S"}
{"molecule": "Nc1ccc(S(N)(=O)=O)cc1 [Sulfanilamide]", "Drug sensitivity": "R"}

###

System: ECO-2: E. coli 2219#
Assay: Drug sensitivity of clinical isolated strain; further: key: R: resistant; S: sensitive
Format: cell-based, Escherichia coli
Details: ECO-2 (Table 3)

{"molecule": "CC1(C)[C@H](C(=O)O)N2C(=O)C[C@H]2S1(=O)=O [Sulbactam]", "Drug sensitivity": "R"}
{"molecule": "CO/N=C(\\C(=O)N[C@@H]1C(=O)N2C(C(=O)O)=C(COC(C)=O)CS[C@H]12)c1csc(N)n1 [Cefotaxime]", "Drug sensitivity": "R"}
{"molecule": "NCC[C@H](O)C(=O)N[C@@H]1C[C@H](N)[C@@H](O[C@H]2O[C@H](CN)[C@@H](O)[C@H](O)[C@H]2O)[C@H](O)[C@H]1O[C@H]1O[C@H](CO)[C@@H](O)[C@H](N)[C@H]1O [Amikacin]", "Drug sensitivity": "S"}

###

Test system: ECO-2: E. coli 2219#
Assay: Drug sensitivity of clinical isolated strain; further: key: R: resistant; S: sensitive
Type: cell-based, Escherichia coli
Details: ECO-2 (Table 3)
metric: Drug sensitivity

{"compound": "Nc1ccc(S(N)(=O)=O)cc1 [Sulfanilamide]", "metric": "Drug sensitivity", "result": "R"}
{"compound": "C[C@@H](O)[C@H]1C(=O)N2C(C(=O)O)=C(SCCN=CN)C[C@H]12 [Imipenem]", "metric": "Drug sensitivity", "result": "S"}
{"compound": "Cc1nnc(SCC2=C(C(=O)O)N3C(=O)[C@@H](NC(=O)Cn4cnnn4)[C@H]3SC2)s1 [Cefazolin]", "metric": "Drug sensitivity", "result": "R"}
{"compound": "C[C@H]1[C@H](NC(=O)/C(=N\\OC(C)(C)C(=O)O)c2csc(N)n2)C(=O)N1S(=O)(=O)O [Aztreonam]", "metric": "Drug sensitivity", "result": "R"}
{"compound": "CN(C)[C@@H]1C(O)=C(C(N)=O)C(=O)[C@@]2(O)C(O)=C3C(=O)c4c(O)cccc4[C@@](C)(O)[C@H]3C[C@@H]12 [Tetracycline]", "metric": "Drug sensitivity", "result": "S"}
{"compound": "CC(C)(O/N=C(\\C(=O)N[C@@H]1C(=O)N2C(C(=O)[O-])=C(C[n+]3ccccc3)CS[C@H]12)c1csc(N)n1)C(=O)O [Ceftazidime]", "metric": "Drug sensitivity", "result": "R"}

###

Test system: ECO-1: Escherichia coli 1139#
Test: MIC of silver with antibiotics on clinical isolated MDR Gram-negative bacteria
Assay type: cell-based
Conditions: antibiotic 4 μM
Listed here are compounds together with their documented MIC of silver in the presence of different antibiotics.
metric: MIC of silver in the presence of different antibiotics (µM)

{"chemical_smiles": "CN(C)[C@@H]1C(O)=C(C(N)=O)C(=O)[C@@]2(O)C(O)=C3C(=O)c4c(O)cccc4[C@@](C)(O)[C@H]3C[C@@H]12", "numeric_readout": 80}
{"chemical_smiles": "CN[C@@H]1[C@@H](O)[C@@H](O[C@@H]2[C@@H](O)[C@H](O[C@H]3O[C@H]([C@@H](C)O)[C@@H](O)[C@H](O)[C@H]3N)[C@@H](N)C[C@H]2N)OC[C@]1(C)O", "numeric_readout": 40}
{"chemical_smiles": "O=c1c2ccccc2[se]n1-c1ccccc1", "numeric_readout": 5}
{"chemical_smiles": "NC[C@H]1O[C@H](O[C@H]2[C@H](O)[C@@H](O[C@H]3O[C@H](CO)[C@@H](O)[C@H](N)[C@H]3O)[C@H](N)C[C@@H]2N)[C@H](O)[C@@H](O)[C@@H]1O", "numeric_readout": 40}

###

Tested on: KP-2: K. pneumonia subsp. pneumonia 0322#
Assay: Drug sensitivity of clinical isolated strain; further: key: R: resistant; S: sensitive
Assay type: cell-based, Klebsiella pneumonia
Conditions: KP-2 (Table 3)

{"compound": "C[C@@H](O)[C@H]1C(=O)N2C(C(=O)O)=C(S[C@@H]3CN[C@H](C(=O)N(C)C)C3)[C@H](C)[C@H]12", "Drug sensitivity": "S"}
{"compound": "C[C@@H](O)[C@H]1C(=O)N2C(C(=O)O)=C(SCCN=CN)C[C@H]12", "Drug sensitivity": "S"}
{"compound": "C[C@]1(Cn2ccnn2)[C@H](C(=O)O)N2C(=O)C[C@H]2S1(=O)=O", "Drug sensitivity": "R"}
{"compound": "CC(C)(O/N=C(\\C(=O)N[C@@H]1C(=O)N2C(C(=O)[O-])=C(C[n+]3ccccc3)CS[C@H]12)c1csc(N)n1)C(=O)O", "Drug sensitivity": "R"}
{"compound": "CCN1CCN(C(=O)N[C@@H](C(=O)N[C@@H]2C(=O)N3[C@@H]2SC(C)(C)[C@@H]3C(=O)O)c2ccccc2)C(=O)C1=O", "Drug sensitivity": "R"}
{"compound": "CO/N=C(\\C(=O)N[C@@H]1C(=O)N2C(C(=O)O)=C(COC(C)=O)CS[C@H]12)c1csc(N)n1", "Drug sensitivity": "R"}
{"compound": "CC1(C)S[C@@H]2[C@H](NC(=O)[C@H](N)c3ccccc3)C(=O)N2[C@H]1C(=O)O", "Drug sensitivity": "R"}
{"compound": "CO/N=C(\\C(=O)N[C@@H]1C(=O)N2C(C(=O)[O-])=C(C[N+]3(C)CCCC3)CS[C@H]12)c1csc(N)n1 [Cefepime]", "Drug sensitivity": "R"}
{"compound": "O=C(N[C@H](CO)[C@H](O)c1ccc([N+](=O)[O-])cc1)C(Cl)Cl", "Drug sensitivity": "R"}
{"compound": "NCC[C@H](O)C(=O)N[C@@H]1C[C@H](N)[C@@H](O[C@H]2O[C@H](CN)[C@@H](O)[C@H](O)[C@H]2O)[C@H](O)[C@H]1O[C@H]1O[C@H](CO)[C@@H](O)[C@H](N)[C@H]1O", "Drug sensitivity": "S"}
{"compound": "C[C@H]1COc2c(N3CCN(C)CC3)c(F)cc3c(=O)c(C(=O)O)cn1c23", "Drug sensitivity": "R"}
{"compound": "Cc1nnc(SCC2=C(C(=O)O)N3C(=O)[C@@H](NC(=O)Cn4cnnn4)[C@H]3SC2)s1", "Drug sensitivity": "R"}
{"compound": "CC1(C)[C@H](C(=O)O)N2C(=O)C[C@H]2S1(=O)=O", "Drug sensitivity": "R"}
